Reference for the values: patent US10125134B2

- System: NCI-H358 cells (express KRas G12C), Phospho-ERK
- Run Description: Cellular inhibition of KRas G12C: Phospho-ERK in NCI-H358 cells
- Format: cell-based
- Applied Conditions: Homo sapiens, NCI-H358, 3 h, pERK(Thr202/Tyr204) normalized with GAPDH; NCI-H358 cells; 3 hours; read-out: IC50
Endpoint: IC50

- Compound: "C=CC(=O)N1CCN(c2nc(OC[C@@H]3CCCN3C)nc3c2CCN(c2cccc(C)c2C)C3)C[C@@H]1CC#N"
  Subject Of Test: "NCI-H358 cells (express KRas G12C), Phospho-ERK"
  IC50: "0.0001 to 1 µM"
- Compound: "C=CC(=O)N1C[C@H](C)N(c2nc(OC[C@@H]3CCCN3C)nc3c2CCN(c2cc(O)cc4ccccc24)C3)C[C@H]1C"
  Subject Of Test: "NCI-H358 cells (express KRas G12C), Phospho-ERK"
  IC50: "0.0001 to 1 µM"
- Compound: "C=CC(=O)N1CCN(c2nc(OC[C@@H]3C[C@@H](F)CN3C)nc3c2CCN(c2cccc(C)c2C)C3)C[C@@H]1CC#N"
  Subject Of Test: "NCI-H358 cells (express KRas G12C), Phospho-ERK"
  IC50: "0.0001 to 1 µM"
- Compound: "CC(C)=CC(=O)N1CCN(c2nc(OC[C@@H]3CCCN3C)nc3c2CCN(c2cccc4ccccc24)C3)CC1CC#N (some centres unmarked)"
  Subject Of Test: "NCI-H358 cells (express KRas G12C), Phospho-ERK"
  IC50: "> 1 µM"

Consider the compound C=CC(=O)N1CCN(c2nc(OCCCN3CCN(C(C)=O)CC3)nc3c2CCN(c2cc(O)cc4ccccc24)C3)CC1 and give its measured IC50.
0.0001 to 1 µM
